// reported inhibition for each item listed
study-target: UniProt:P80209
Sequence (P80209 whole entry): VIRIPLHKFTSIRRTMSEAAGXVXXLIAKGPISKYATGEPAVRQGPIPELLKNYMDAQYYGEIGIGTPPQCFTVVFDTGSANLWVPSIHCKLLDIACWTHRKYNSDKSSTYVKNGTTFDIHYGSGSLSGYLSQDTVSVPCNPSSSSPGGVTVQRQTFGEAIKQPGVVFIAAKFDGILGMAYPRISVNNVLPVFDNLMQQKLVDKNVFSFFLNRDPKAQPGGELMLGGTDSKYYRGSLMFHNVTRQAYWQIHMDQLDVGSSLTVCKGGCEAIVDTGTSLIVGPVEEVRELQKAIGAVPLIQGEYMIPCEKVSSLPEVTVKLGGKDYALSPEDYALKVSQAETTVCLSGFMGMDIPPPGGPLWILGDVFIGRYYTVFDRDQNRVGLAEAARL
experiment-notes: Tested for inhibition of Cathepsin D from bovine was determined at 10e-5 M
Could you give me the number in %? Just the number is fine.

Solved entries:
> print(dat)
                                smiles.data  meas.value
1  CCOC(=O)N[C@@H](Cc1ccccc1)C(=O)N[C@@H](Cc1c[nH]cn1)C(=O)N[C@@H](CC1CCCCC1)[C@@H](O)CP(=O)(OC)OC           0
2  CC(C)(C)OC(=O)N[C@@H](Cc1ccccc1)C(=O)N[C@@H](Cc1c[nH]cn1)C(=O)N[C@@H](CC1CCCCC1)[C@@H](O)CP1(=O)OCCCO1           0
3  COP(=O)(C[C@H](O)[C@H](CC1CCCCC1)NC(=O)[C@H](Cc1c[nH]cn1)NC(=O)[C@H](Cc1ccccc1)NC(=O)CC(C)(C)C)OC           6

Now for a further compound.
GET /values?item= COP(=O)(C[C@H](O)[C@H](CC1CCCCC1)NC(=O)[C@H](CC(C)C)NC(=O)[C@H](Cc1ccccc1)NC(=O)OC(C)(C)C)OC &system= UniProt:P80209 returns inhibition: 86
